Recorded values, source paper PMC10184313.

Tested on: P. falciparum strain 3D7
Test: Anti-plasmodial activity assay (SYBR-Safe)
Assay type: cell-based, Plasmodium falciparum
Settings: 3D7, thiamine-free medium; read-out: IC50 of Suppression of P. falciparum proliferation, Thiamine-free
parameter measured: IC50 (nM)
One number for each entry, in nM.

For Cc1ncc(Cn2cc(CCCC(=O)NO)nn2)c(N)n1 [Compound 24b] , what is its reported IC50?
900

* * *

Molecular target: A. viridans PO (Aerococcus viridans)
Sequence (A9X9K8 1-592): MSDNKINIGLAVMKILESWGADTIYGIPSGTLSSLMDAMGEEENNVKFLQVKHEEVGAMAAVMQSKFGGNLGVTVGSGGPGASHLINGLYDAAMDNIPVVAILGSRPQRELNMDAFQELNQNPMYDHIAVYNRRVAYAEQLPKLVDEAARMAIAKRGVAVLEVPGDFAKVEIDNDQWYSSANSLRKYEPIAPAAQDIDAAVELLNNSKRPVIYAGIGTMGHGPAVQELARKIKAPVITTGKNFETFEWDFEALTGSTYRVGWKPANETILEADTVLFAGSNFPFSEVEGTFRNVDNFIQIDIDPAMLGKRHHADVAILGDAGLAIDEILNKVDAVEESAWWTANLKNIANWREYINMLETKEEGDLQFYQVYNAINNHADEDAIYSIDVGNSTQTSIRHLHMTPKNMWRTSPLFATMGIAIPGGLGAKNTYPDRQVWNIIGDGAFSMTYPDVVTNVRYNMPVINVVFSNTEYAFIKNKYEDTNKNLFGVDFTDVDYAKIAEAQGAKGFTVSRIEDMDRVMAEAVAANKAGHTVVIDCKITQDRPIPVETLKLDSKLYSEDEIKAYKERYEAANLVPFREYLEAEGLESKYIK
Experiment: A. viridans PO inhibitory activity assay (quinoneimine dye)
Assay type: biochemical
Conditions: increased ThDP: [Compound] = 250 μM, [ThDP] = 125 μM
parameter measured: Inhibition (%) PO

The cases that follow already have their Inhibition (%) PO on record.
{"columns": ["compound", "Inhibition (%) PO"],
 "data": [
  ["Cc1ncc(Cn2cc(CCCCC(=O)NO)nn2)c(N)n1 [Compound 24c]", "24 ± 4%"],
  ["Cc1ncc(Cn2cc(CCn3cc(-c4ccc(F)cc4)nn3)nn2)c(N)n1 [Compound 16a]", "<20%"]
]}

Hi team, please reply with Inhibition (%) PO for each item in this list.
1. COc1ccc(-c2cn(CCCCc3cn(Cc4cnc(C)nc4N)nn3)nn2)cc1 [Compound 17c]
2. Cc1ncc(Cn2cc(CCCCn3cc(-c4ccccc4)nn3)nn2)c(N)n1 [Compound 15c]
3. COc1ccc(-c2cn(CCc3cn(Cc4cnc(C)nc4N)nn3)nn2)cc1 [Compound 17a]
4. Cc1ncc(Cn2cc(CCCC(=O)NO)nn2)c(N)n1 [Compound 24b]
5. Cc1ncc(Cn2cc(CCCCn3cc(-c4ccc(F)cc4)nn3)nn2)c(N)n1 [Compound 16c]
6. Cc1ncc(Cn2cc(CCCn3cc(-c4ccccc4)nn3)nn2)c(N)n1 [Compound 15b]

1: <20%; 2: <20%; 3: <20%; 4: 27 ± 4%; 5: <20%; 6: <20%

Hi team, please reply with Inhibition (%) PO for each item in this list.
1. Cc1ncc(C[n+]2csc(CCO[P@@](=O)(O)OP(=O)(O)O)c2C)c(O)n1 [OxThDP 7b, oxythiamine diphosphate, reference compound]
2. Cc1ncc(Cn2cc(CCn3cc(-c4ccccc4)nn3)nn2)c(N)n1 [Compound 15a]

32 ± 5%
<20%

Hi team, please reply with Inhibition (%) PO for each item in this list.
1. Cc1ncc(Cn2cc(CCCn3cc(-c4ccc(F)cc4)nn3)nn2)c(N)n1 [Compound 16b]
2. COc1ccc(-c2cn(CCCc3cn(Cc4cnc(C)nc4N)nn3)nn2)cc1 [Compound 17b]

<20%
<20%
